measured on: CNOT4 CCR4-NOT transcription complex subunit 4 (Homo sapiens, UniProt O95628)
Construct: isoTOP-ABPP experiments performed in cell lysates (in vitro); endogenous in cells; host or cells: MDA-MB-231 soluble lysate
Sequence (O95628 whole entry, one chain of several): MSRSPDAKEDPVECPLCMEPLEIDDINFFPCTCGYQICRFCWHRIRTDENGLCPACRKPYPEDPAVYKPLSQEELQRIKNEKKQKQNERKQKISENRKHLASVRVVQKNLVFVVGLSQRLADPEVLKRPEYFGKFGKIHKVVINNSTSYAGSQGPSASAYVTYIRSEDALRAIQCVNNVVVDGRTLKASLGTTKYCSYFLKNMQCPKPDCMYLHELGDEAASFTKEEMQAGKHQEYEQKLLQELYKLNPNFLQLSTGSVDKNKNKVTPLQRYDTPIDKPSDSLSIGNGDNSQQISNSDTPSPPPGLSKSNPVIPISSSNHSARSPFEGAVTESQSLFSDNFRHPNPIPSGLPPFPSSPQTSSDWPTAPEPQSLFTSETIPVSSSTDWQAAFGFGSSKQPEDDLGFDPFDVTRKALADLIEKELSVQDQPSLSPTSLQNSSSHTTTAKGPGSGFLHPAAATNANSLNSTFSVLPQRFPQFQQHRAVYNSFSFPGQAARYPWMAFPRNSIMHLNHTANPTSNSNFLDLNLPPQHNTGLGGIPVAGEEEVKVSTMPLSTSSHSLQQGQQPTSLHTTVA
assay details: competitive isoTOP-ABPP
Assay type: binding
study conditions: 50 uM, 231 sol, in vitro
quantity name: isoTOP-ABPP reactivity ratio at lysine O95628_K134
Respond numerically, and do not add a unit to the figure.

In plain terms, O=C(Oc1c(F)c(F)c(F)c(F)c1F)c1ccc2ccccc2n1 [fragment 25] has a documented isoTOP-ABPP reactivity ratio at lysine O95628_K134 of 1.8

# isoTOP-ABPP reactivity ratio at lysine O95628_K134 of Cn1cc(CC(=O)Oc2ccc([N+](=O)[O-])cc2[N+](=O)[O-])c2ccccc21 [fragment 32] = 2.1

get_value(item= O=C(Oc1c(F)c(F)c(F)c(F)c1F)C1CCN(C(=O)OCc2ccccc2)CC1 [fragment 24] , readout=isoTOP-ABPP reactivity ratio at lysine O95628_K134) returns 1.0

The molecule O=C(CCc1cn(-c2ccccc2)nc1-c1ccccc1)Oc1ccc([N+](=O)[O-])cc1[N+](=O)[O-] [fragment 29] showed isoTOP-ABPP reactivity ratio at lysine O95628_K134 equal to 1.1

For this molecule ( CCn1cc(C(=O)Oc2c(F)c(F)c(F)c(F)c2F)c(=O)c2ccc(C)nc21 [fragment 28] ), measured isoTOP-ABPP reactivity ratio at lysine O95628_K134 is 1.0

Reported isoTOP-ABPP reactivity ratio at lysine O95628_K134 for O=C(CN1C(=O)c2ccccc2C1=O)Oc1c(F)c(F)c(F)c(F)c1F [fragment 27] was 1.2

Lookup result for COc1cc(CCC(=O)Oc2ccc([N+](=O)[O-])cc2[N+](=O)[O-])cc(OC)c1OC [fragment 33] ; measured isoTOP-ABPP reactivity ratio at lysine O95628_K134: 1.4

Documented isoTOP-ABPP reactivity ratio at lysine O95628_K134 of O=C(Oc1ccc([N+](=O)[O-])cc1[N+](=O)[O-])C(c1ccccc1)c1ccccc1 [fragment 30, 2,4-Dinitrophenyl 2,2-diphenylacetate] : 1.2

Briefly, isoTOP-ABPP reactivity ratio at lysine O95628_K134 measured for O=C(CCc1coc2cc(F)ccc2c1=O)Oc1c(F)c(F)c(F)c(F)c1F [fragment 26] : 1.1

response.value for O=C(Oc1ccc([N+](=O)[O-])cc1[N+](=O)[O-])c1cc(C(F)(F)F)cc(C(F)(F)F)c1 [fragment 31] (field: isoTOP-ABPP reactivity ratio at lysine O95628_K134) = 4.3
